- Tested on: MFE-280 (Endometrial Carcinoma)
- Assay Notes: Bliss excess, mean over the matrix (fraction); higher = more synergy
Please enter yes where Bliss excess is greater than or equal to -0.02, and no where it is lower.

*Q* For this compound, is measured Bliss excess -0.02 or higher? C=CCn1c(=O)c2cnc(Nc3ccc(N4CCN(C)CC4)cc3)nc2n1-c1cccc(C(C)(C)O)n1 [AZD1775] + CCc1c2c(nc3ccc(O)cc13)-c1cc3c(c(=O)n1C2)COC(=O)[C@]3(O)CC [SN-38] (first compound max 1 µM, partner max 0.3 µM)
*A* yes

*Q* What about this compound? NC1(C(=O)N[C@@H](CCO)c2ccc(Cl)cc2)CCN(c2ncnc3[nH]ccc23)CC1 [Capivasertib] + CCN(CCO)CCCOc1ccc2c(Nc3cc(CC(=O)Nc4cccc(F)c4)[nH]n3)ncnc2c1 [AZD2811] (first compound max 10 µM, 7x7, partner max 1 µM)
*A* yes

*Q* What about this compound? Cc1nc(Nc2ncc(C(=O)Nc3c(C)cccc3Cl)s2)cc(N2CCN(CCO)CC2)n1 [Dasatinib] + CC(=O)Nc1cccc(-n2c(=O)n(C3CC3)c(=O)c3c(Nc4ccc(I)cc4F)n(C)c(=O)c(C)c32)c1 [Trametinib] (first compound max 2 µM, 7x7, partner max 1 µM)
*A* yes

*Q* What about this compound? O=C(c1cc(Cc2n[nH]c(=O)c3ccccc23)ccc1F)N1CCN(C(=O)C2CC2)CC1 [Olaparib] + CC1(C)CCC(CN2CCN(c3ccc(C(=O)NS(=O)(=O)c4ccc(NCC5CCOCC5)c([N+](=O)[O-])c4)c(Oc4cnc5[nH]ccc5c4)c3)CC2)=C(c2ccc(Cl)cc2)C1 [Venetoclax] (first compound max 10 µM, 7x7, partner max 1 µM)
*A* no

###

- System: LN-229 (Glioblastoma)
- Assay Notes: combination Emax (second highest fraction inhibited in the dose matrix, 72 h); higher = more inhibition; extreme values may be limits of the assay
Experimental Endpoint: combination Emax
When you answer, write just the number.

Below, each entry is followed by its recorded combination Emax result.
1) CC1(C)CCC(CN2CCN(c3ccc(C(=O)NS(=O)(=O)c4ccc(NCC5CCOCC5)c([N+](=O)[O-])c4)c(Oc4cnc5[nH]ccc5c4)c3)CC2)=C(c2ccc(Cl)cc2)C1 [Venetoclax] + C=CCn1c(=O)c2cnc(Nc3ccc(N4CCN(C)CC4)cc3)nc2n1-c1cccc(C(C)(C)O)n1 [AZD1775] (first compound max 1 µM, partner max 1 µM) ... 0.292
2) CN(CCO)CC[C@H](CSc1ccccc1)Nc1ccc(S(=O)(=O)NC(=O)c2ccc(N3CCC([C@@H](O)c4ccccc4-c4ccc(Cl)cc4)CC3)cc2)cc1S(=O)(=O)C(F)(F)F [AZD4320] + Cn1cnc2c(F)c(Nc3ccc(Br)cc3Cl)c(C(=O)NOCCO)cc21 [Selumetinib] (first compound max 1 µM, 7x7, partner max 3 µM) ... 0.397

*Q* Request: combination Emax, test system LN-229 (Glioblastoma), entry CC(=O)Nc1cccc(-n2c(=O)n(C3CC3)c(=O)c3c(Nc4ccc(I)cc4F)n(C)c(=O)c(C)c32)c1 [Trametinib] + Cc1nc(-c2cn3c(n2)-c2ccc(-c4cnn(C(C)(C)C(N)=O)c4)cc2OCC3)n(C(C)C)n1 [Taselisib] (first compound max 1 µM, 7x7, partner max 10 µM)
*A* 0.803

###

- System: L-1236 (Hodgkin's Lymphoma)
- Assay Notes: combination Emax (second highest fraction inhibited in the dose matrix, 72 h); higher = more inhibition; extreme values may be limits of the assay
Experimental Endpoint: combination Emax
When you answer, write just the number.

1. Cc1cc2ncnn2cc1Nc1ncc2c(n1)n(C1CCOCC1)c(=O)n2C [AZD7648] + C[C@@H]1COCCN1C2=NC(=NC(=C2)C3(CC3)[S@](=N)(=O)C)C4=C5C=CNC5=NC=C4 [AZD6738] (first compound max 10 µM, 7x7, partner max 10 µM) ... 0.689

*Q* Request: combination Emax, test system L-1236 (Hodgkin's Lymphoma), entry NC1(C(=O)N[C@@H](CCO)c2ccc(Cl)cc2)CCN(c2ncnc3[nH]ccc23)CC1 [Capivasertib] + CCN(CCO)CCCOc1ccc2c(Nc3cc(CC(=O)Nc4cccc(F)c4)[nH]n3)ncnc2c1 [AZD2811] (first compound max 10 µM, 7x7, partner max 1 µM)
*A* 0.792

*Q* What about this compound? COc1nnc2ccc(N3CCC(c4ccc(OCCN5CCN(C)C(=O)[C@H]5C)cc4)CC3)nn12 [AZD5153] + Cc1c2c(nn1C)CSCc1cc(n(C)n1)CSc1cc(c3ccccc3c1)OCCCc1c(C(=O)O)n(C)c3c-2c(Cl)ccc13 [AZD5991] (first compound max 1 µM, 7x7, partner max 1 µM)
*A* 1

*Q* What about this compound? C[C@@H](Nc1cc(F)cc(F)c1)c1cc(C(=O)N(C)C)cc2c(=O)cc(N3CCOCC3)oc12 [AZD8186] + C1CN(CCC1(C(=O)N[C@@H](CCO)C2=CC=C(C=C2)Cl)N)C3=NC=NC4=C3C=CN4 [AZD5363] (first compound max 10 µM, 7x7, partner max 10 µM)
*A* 0.722

###

- Tested on: MFE-280 (Endometrial Carcinoma)
- Assay Notes: combination Emax (second highest fraction inhibited in the dose matrix, 72 h); higher = more inhibition; extreme values may be limits of the assay
Experimental Endpoint: combination Emax
When you answer, write just the number.

1) Cc1cc2ncnn2cc1Nc1ncc2c(n1)n(C1CCOCC1)c(=O)n2C [AZD7648] + C=CCn1c(=O)c2cnc(Nc3ccc(N4CCN(C)CC4)cc3)nc2n1-c1cccc(C(C)(C)O)n1 [AZD1775] (first compound max 10 µM, partner max 1 µM) ... 0.355

*Q* Returns the measured combination Emax for the input compound. Input: N#Cc1cnc(Nc2cc(NC[C@H]3CNCCO3)c(C(F)(F)F)cn2)cn1 [SRA737] + CCc1c2c(nc3ccc(O)cc13)-c1cc3c(c(=O)n1C2)COC(=O)[C@]3(O)CC [SN-38] (first compound max 10 µM, 7x7, partner max 0.3 µM)
*A* 0.88

*Q* What about this compound? CN(CCO)CC[C@H](CSc1ccccc1)Nc1ccc(S(=O)(=O)NC(=O)c2ccc(N3CCC([C@@H](O)c4ccccc4-c4ccc(Cl)cc4)CC3)cc2)cc1S(=O)(=O)C(F)(F)F [AZD4320] + CC(=O)O[C@H]1C(=O)[C@@]2(C)[C@H]([C@H](OC(=O)c3ccccc3)[C@]3(O)C[C@H](OC(=O)[C@H](O)[C@@H](NC(=O)c4ccccc4)c4ccccc4)C(C)=C1C3(C)C)[C@]1(OC(C)=O)CO[C@@H]1C[C@@H]2O [Paclitaxel] (first compound max 1 µM, 7x7, partner max 3 µM)
*A* 0.979

###

As shown below, each of these compounds has a reported Bliss excess value.
- System: REH (B-Lymphoblastic Leukemia)
- Assay Notes: Bliss excess, mean over the matrix (fraction); higher = more synergy
When you answer, write just the number.

1) C[C@@H](c1ccc2nccn2c1)n1nnc2ncc(-c3cnn(C)c3)nc21 [Savolitinib] + Cc1c2c(nn1C)CSCc1cc(n(C)n1)CSc1cc(c3ccccc3c1)OCCCc1c(C(=O)O)n(C)c3c-2c(Cl)ccc13 [AZD5991] (first compound max 1 µM, 7x7, partner max 1 µM) ... -0.0369

Alright, here's another compound for you.
*Q* Returns the measured Bliss excess for the input compound. Input: C[C@@H]1COCCN1c1cc(C2([S@](C)(=N)=O)CC2)nc(-c2ccnc3[nH]ccc23)n1 [AZD6738] + C1CC(C1)(C(=O)[O-])C(=O)[O-].N.N.[Pt+2] [Carboplatin] (first compound max 10 µM, 7x7, partner max 10 µM)
*A* 0.0175

###

- Tested on: KE-37 (T-Lymphoblastic Leukemia)
- Assay Notes: combination Emax (second highest fraction inhibited in the dose matrix, 72 h); higher = more inhibition; extreme values may be limits of the assay
Experimental Endpoint: combination Emax
When you answer, write just the number.

Below, each entry is followed by its recorded combination Emax result.
1) CN(CCO)CC[C@H](CSc1ccccc1)Nc1ccc(S(=O)(=O)NC(=O)c2ccc(N3CCC([C@@H](O)c4ccccc4-c4ccc(Cl)cc4)CC3)cc2)cc1S(=O)(=O)C(F)(F)F [AZD4320] + Cn1cnc2c(F)c(Nc3ccc(Br)cc3Cl)c(C(=O)NOCCO)cc21 [Selumetinib] (first compound max 1 µM, 7x7, partner max 3 µM) ... 1
2) COc1cccc(OCCCN)c1-c1cc(Nc2cnc(C#N)cn2)n[nH]1 [Prexasertib] + C[C@@H]1COCCN1C2=NC(=NC(=C2)C3(CC3)[S@](=N)(=O)C)C4=C5C=CNC5=NC=C4 [AZD6738] (first compound max 1 µM, 7x7, partner max 10 µM) ... 1
3) Cn1cnc2c(F)c(Nc3ccc(Br)cc3Cl)c(C(=O)NOCCO)cc21 [Selumetinib] + C=CCn1c(=O)c2cnc(Nc3ccc(N4CCN(C)CC4)cc3)nc2n1-c1cccc(C(C)(C)O)n1 [AZD1775] (first compound max 10 µM, partner max 1 µM) ... 0.947
4) Cc1cc2ncnn2cc1Nc1ncc2c(n1)n(C1CCOCC1)c(=O)n2C [AZD7648] + C=CCn1c(=O)c2cnc(Nc3ccc(N4CCN(C)CC4)cc3)nc2n1-c1cccc(C(C)(C)O)n1 [AZD1775] (first compound max 10 µM, partner max 1 µM) ... 1
5) Cc1c2c(nn1C)CSCc1cc(n(C)n1)CSc1cc(c3ccccc3c1)OCCCc1c(C(=O)O)n(C)c3c-2c(Cl)ccc13 [AZD5991] + C1CN(CCC1(C(=O)N[C@@H](CCO)C2=CC=C(C=C2)Cl)N)C3=NC=NC4=C3C=CN4 [Capivasertib] (first compound max 1 µM, 7x7, partner max 3 µM) ... 1
6) CC(=O)c1c(C)c2cnc(Nc3ccc(N4CCNCC4)cn3)nc2n(C2CCCC2)c1=O [Palbociclib] + CC1(C)CCC(CN2CCN(c3ccc(C(=O)NS(=O)(=O)c4ccc(NCC5CCOCC5)c([N+](=O)[O-])c4)c(Oc4cnc5[nH]ccc5c4)c3)CC2)=C(c2ccc(Cl)cc2)C1 [Venetoclax] (first compound max 10 µM, 7x7, partner max 1 µM) ... 0.776

*Q* Returns the measured combination Emax for the input molecule. Input: CC(=O)Nc1cccc(-n2c(=O)n(C3CC3)c(=O)c3c(Nc4ccc(I)cc4F)n(C)c(=O)c(C)c32)c1 [Trametinib] + Cc1nc(-c2cn3c(n2)-c2ccc(-c4cnn(C(C)(C)C(N)=O)c4)cc2OCC3)n(C(C)C)n1 [Taselisib] (first compound max 1 µM, 7x7, partner max 10 µM)
*A* 0.676

*Q* What about this molecule? COc1nnc2ccc(N3CCC(c4ccc(OCCN5CCN(C)C(=O)[C@H]5C)cc4)CC3)nn12 [AZD5153] + C=CCn1c(=O)c2cnc(Nc3ccc(N4CCN(C)CC4)cc3)nc2n1-c1cccc(C(C)(C)O)n1 [AZD1775] (first compound max 1 µM, partner max 1 µM)
*A* 0.978

*Q* What about this molecule? C[C@@H](c1ccc2nccn2c1)n1nnc2ncc(-c3cnn(C)c3)nc21 [Savolitinib] + Cc1c2c(nn1C)CSCc1cc(n(C)n1)CSc1cc(c3ccccc3c1)OCCCc1c(C(=O)O)n(C)c3c-2c(Cl)ccc13 [AZD5991] (first compound max 1 µM, 7x7, partner max 1 µM)
*A* 0.159

*Q* What about this molecule? C[C@@H](c1ccc2nccn2c1)n1nnc2ncc(-c3cnn(C)c3)nc21 [Savolitinib] + CN(CC[C@H](CSC1=CC=CC=C1)NC2=C(C=C(C=C2)S(=O)(=O)NC(=O)C3=CC=C(C=C3)N4CCC(CC4)[C@H](C5=CC=CC=C5C6=CC=C(C=C6)Cl)O)S(=O)(=O)C(F)(F)F)CCO [AZD4320] (first compound max 1 µM, 7x7, partner max 1 µM)
*A* 1

*Q* What about this molecule? COc1nnc2ccc(N3CCC(c4ccc(OCCN5CCN(C)C(=O)[C@H]5C)cc4)CC3)nn12 [AZD5153] + CCN(CCO)CCCOc1ccc2c(Nc3cc(CC(=O)Nc4cccc(F)c4)[nH]n3)ncnc2c1 [AZD2811] (first compound max 1 µM, 7x7, partner max 1 µM)
*A* 1

*Q* What about this molecule? NC1(C(=O)N[C@@H](CCO)c2ccc(Cl)cc2)CCN(c2ncnc3[nH]ccc23)CC1 [Capivasertib] + CC(C)n1c(=O)n(C)c2cnc3cc(F)c(-c4ccc(OCCCN5CCCCC5)nc4)cc3c21 [AZD1390] (first compound max 10 µM, 7x7, partner max 0.3 µM)
*A* 0.72

*Q* What about this molecule? COc1cccc(OCCCN)c1-c1cc(Nc2cnc(C#N)cn2)n[nH]1 [Prexasertib] + CCc1c2c(nc3ccc(O)cc13)-c1cc3c(c(=O)n1C2)COC(=O)[C@]3(O)CC [SN-38] (first compound max 1 µM, 7x7, partner max 0.3 µM)
*A* 1
